Tested on: MCF-10A
Test: normalised response (% of control), CellTox Green; higher = less cell death (100 = DMSO, 0 = benzethonium chloride kill control)
Details: incubation time: 72 h
measure name: normalised response (%)
Form entry: value (%) — number only.

COc1cc2c(cc1-c1c(C)noc1C)ncc1[nH]c(=O)n([C@H](C)c3ccccn3)c12 [I-BET151] (100 nM) :: 89.9

Ask: // lookup normalised response for O=NN(CCCl)C(=O)NC1CCCCC1 [Lomustine] (10000 nM)
Result: 88.2

Ask: Consider next the compound CCCc1cc(C)[nH]c(=O)c1CNC(=O)c1cc(-c2ccnc(N3CCN(C)CC3)c2)cc2c1cnn2C(C)C [GSK343] (10000 nM) in the same way.
Result: 90.1

Ask: Likewise for O=C(c1cc(Cc2n[nH]c(=O)c3ccccc23)ccc1F)N1CCN(C(=O)C2CC2)CC1 [Olaparib] (1000 nM) ?
Result: 101

Ask: And for CC[C@@H]1C(=O)N(C)c2cnc(Nc3ccc(C(=O)N[C@H]4CC[C@H](N5CCN(CC6CC6)CC5)CC4)cc3OC)nc2N1C(C)C [Volasertib] (1000 nM) ?
Result: 56.1

Ask: Would you kindly repeat that for COc1cc2c(cc1-c1c(C)noc1C)ncc1[nH]c(=O)n([C@H](C)c3ccccn3)c12 [I-BET151] (1000 nM) ?
Result: 109

Ask: Request: COc1cc2c(Oc3ccc(NC(=O)C4(C(=O)Nc5ccc(F)cc5)CC4)cc3F)ccnc2cc1OCCCN1CCOCC1 [Foretinib] (100 nM)
Result: 111

Ask: Record: N[C@@H](Cc1ccc(N(CCCl)CCCl)cc1)C(=O)O [Melphalan] (1250 nM)
Result: -50.4

----------
Listing of recorded drug sensitivity score by entry.
System: MDA-MB-468
Assay: drug sensitivity score (DSS), CellTiter-Blue viability (DSS (AUC-based score)); higher = stronger viability inhibition; extreme values may be limits of the assay
Conditions: incubation time: 72 h
Respond with the number and no other words.

Some entries whose results are on file:
CC[C@@H]1C(=O)N(C)c2cnc(Nc3ccc(C(=O)N[C@H]4CC[C@H](N5CCN(CC6CC6)CC5)CC4)cc3OC)nc2N1C(C)C :: 11.9
CCCCCOC(=O)Nc1nc(=O)n([C@@H]2O[C@H](C)[C@@H](O)[C@H]2O)cc1F :: 0
COc1cc2c(Oc3ccc(NC(=O)C4(C(=O)Nc5ccc(F)cc5)CC4)cc3F)ccnc2cc1OCCCN1CCOCC1 :: 0

Okay, next one:
Ask: Quick check: drug sensitivity score of CC(C)C[C@H](NC(=O)[C@H](CCc1ccccc1)NC(=O)CN1CCOCC1)C(=O)N[C@@H](Cc1ccccc1)C(=O)N[C@@H](CC(C)C)C(=O)[C@@]1(C)CO1 ?
Result: 26.8

----------
System: MDA-MB-453
Test: normalised response (% of control), CellTiter-Glo; higher = more viable cells (100 = DMSO, 0 = benzethonium chloride kill control)
Details: incubation time: 72 h
measure name: normalised response (%)
Could you give me the number in %? Just the number is fine.

CC(C)(C)Cn1c(N)nc2ccc(-c3[nH]c(C(C)(C)C)nc3-c3ccc(F)cc3)nc21 (10 nM) :: 104
N[C@@H](Cc1ccc(N(CCCl)CCCl)cc1)C(=O)O [Melphalan] (12.5 nM) :: 104

Ask: Given the entry CCN(CC)CCOc1ccc(C(=C(Cl)c2ccccc2)c2ccccc2)cc1 [Clomifene] (1000 nM) , report its measured normalised response.
Result: 94.2

Ask: Again, but for O=C(c1cc(Cc2n[nH]c(=O)c3ccccc23)ccc1F)N1CCN(C(=O)C2CC2)CC1 [Olaparib] (10 nM)
Result: 97.8

----------
Test system: MDA-MB-436
Test: normalised response (% of control), CellTiter-Glo; higher = more viable cells (100 = DMSO, 0 = benzethonium chloride kill control)
Conditions: incubation time: 72 h
measure name: normalised response

COc1cc2c(N3CCN(C(=O)Nc4ccc(OC(C)C)cc4)CC3)ncnc2cc1OCCCN1CCCCC1 [Tandutinib] (0.1 nM) :: 97.3%
CC(C)NC[C@@H](C(=O)N1CCN(c2ncnc3c2[C@H](C)C[C@H]3O)CC1)c1ccc(Cl)cc1 [GDC-0068] (1 nM) :: 96.9%

Consider the record given below.
Ask: So what's the measured normalised response for this one? COc1cc2c(cc1-c1c(C)noc1C)ncc1[nH]c(=O)n([C@H](C)c3ccccn3)c12 [I-BET151] (1000 nM)
Result: 94.7%

----------
Test system: MDA-MB-468
Assay: normalised response (% of control), CellTox Green; higher = less cell death (100 = DMSO, 0 = benzethonium chloride kill control)
Conditions: incubation time: 72 h
measure name: normalised response (%)
Value expressed in %; do not type the unit.

Ask: So what does the record say about normalised response for Cc1cc2c(F)c(Oc3ncnn4cc(OC[C@@H](C)O)c(C)c34)ccc2[nH]1 [Brivanib] (10 nM) ?
Result: 91.2

Ask: Also CC(C)C[C@H](NC(=O)[C@H](CCc1ccccc1)NC(=O)CN1CCOCC1)C(=O)N[C@@H](Cc1ccccc1)C(=O)N[C@@H](CC(C)C)C(=O)[C@@]1(C)CO1 [Carfilzomib] (100 nM) , if possible.
Result: -95.8

Ask: // repeat for CCN(CC)CCOc1ccc(C(=C(Cl)c2ccccc2)c2ccccc2)cc1 [Clomifene] (1000 nM) and report
Result: 68.9

Ask: Next entry: NC(=O)c1cccc2cn(-c3ccc([C@@H]4CCCNC4)cc3)nc12 [MK-4827] (100 nM)
Result: 136

----------
System: MFM-223
Test: normalised response (% of control), CellTiter-Glo; higher = more viable cells (100 = DMSO, 0 = benzethonium chloride kill control)
Details: incubation time: 72 h
measure name: normalised response (%)
Express your answer in %, writing the number without its unit.

See these solved cases before continuing.
CC(C)NC[C@@H](C(=O)N1CCN(c2ncnc3c2[C@H](C)C[C@H]3O)CC1)c1ccc(Cl)cc1 [GDC-0068] (1 nM) :: 98.9
CCCc1cc(C)[nH]c(=O)c1CNC(=O)c1cc(-c2ccnc(N3CCN(C)CC3)c2)cc2c1cnn2C(C)C [GSK343] (10 nM) :: 93.3
CO[C@H](C(=O)[C@@H](O)[C@@H](C)O)[C@@H]1Cc2cc3cc(O[C@H]4C[C@@H](O[C@@H]5C[C@@H](O)[C@H](O)[C@@H](C)O5)[C@H](O)[C@@H](C)O4)c(C)c(O)c3c(O)c2C(=O)[C@H]1O[C@H]1C[C@@H](O[C@@H]2C[C@@H](O)[C@@H](O[C@@H]3C[C@](C)(O)[C@H](O)[C@@H](C)O3)[C@@H](C)O2)[C@H](O)[C@@H](C)O1 [Plicamycin] (1 nM) :: 106
COc1cc2c(Oc3ccc(NC(=O)C4(C(=O)Nc5ccc(F)cc5)CC4)cc3F)ccnc2cc1OCCCN1CCOCC1 [Foretinib] (100 nM) :: 75.7
C[C@@H]1C[C@H]2[C@@H]3CCC4=CC(=O)C=C[C@]4(C)[C@@]3(F)[C@@H](O)C[C@]2(C)[C@@]1(O)C(=O)CO [Dexamethasone] (10 nM) :: 95.2

Ask: Please report the recorded normalised response for CC[C@@H]1C(=O)N(C)c2cnc(Nc3ccc(C(=O)N[C@H]4CC[C@H](N5CCN(CC6CC6)CC5)CC4)cc3OC)nc2N1C(C)C [Volasertib] (0.1 nM) .
Result: 96.2

----------
System: CAL-85-1
Assay: normalised response (% of control), CellTiter-Glo; higher = more viable cells (100 = DMSO, 0 = benzethonium chloride kill control)
Conditions: incubation time: 72 h
# normalised response values compiled below
The response must be a number in % with no trailing unit.

# annotated cases, reported normalised response shown
CN1CCc2c(c3ccccc3n2Cc2ccc(C(=O)NO)cc2)C1 [Tubastatin A] (100 nM) :: 98.2
CC[C@@H]1C(=O)N(C)c2cnc(Nc3ccc(C(=O)N[C@H]4CC[C@H](N5CCN(CC6CC6)CC5)CC4)cc3OC)nc2N1C(C)C [Volasertib] (10 nM) :: 70.4
CC(C)(C)Cn1c(N)nc2ccc(-c3[nH]c(C(C)(C)C)nc3-c3ccc(F)cc3)nc21 (100 nM) :: 99.5

Ask: What does the record list as normalised response for C[C@@H]1C[C@H]2[C@@H]3CCC4=CC(=O)C=C[C@]4(C)[C@@]3(F)[C@@H](O)C[C@]2(C)[C@@]1(O)C(=O)CO [Dexamethasone] (100 nM) ?
Result: 113

Ask: Similarly, CC(C)n1nc(-c2ccc3oc(N)nc3c2)c2c(N)ncnc21 [INK128] (10 nM) ?
Result: 81.4

----------
System: BT-549
Assay: normalised response (% of control), CellTiter-Glo; higher = more viable cells (100 = DMSO, 0 = benzethonium chloride kill control)
Conditions: incubation time: 72 h
measure name: normalised response (%)
Write it as a number; the unit % goes unstated.

NC(=O)NO [Hydroxyurea] (10 nM) :: 108
CC(C)C(=O)Nc1ccc([N+](=O)[O-])c(C(F)(F)F)c1 [Flutamide] (1000 nM) :: 103
CO[C@H]1C[C@@H]2CC[C@@H](C)[C@@](O)(O2)C(=O)C(=O)N2CCCC[C@H]2C(=O)O[C@H]([C@H](C)C[C@@H]2CC[C@@H](O)[C@H](OC)C2)CC(=O)[C@H](C)/C=C(\C)[C@@H](O)[C@@H](OC)C(=O)[C@H](C)C[C@H](C)/C=C/C=C/C=C/1C [Sirolimus] (10 nM) :: 58.3

Here is another compound to look at.
Ask: Given the entry NC(=O)c1cccc2cn(-c3ccc([C@@H]4CCCNC4)cc3)nc12 [MK-4827] (1000 nM) , report its measured normalised response.
Result: 97.4
